- System: U2OS
- measurement protocol: cell viability relative to DMSO; higher = less toxic
- measurement setup: 72 h; 10 nM
measured quantity: cell viability (%)
The reply should be a number in %, with the unit left off.

Q: So what does the record say about cell viability for "CC[C@H](C)[C@H](N)C1=N[C@H](C(=O)N[C@@H](CC(C)C)C(=O)N[C@H](CCC(=O)O)C(=O)N[C@H](C(=O)N[C@H]2CCCCNC(=O)[C@H](CC(N)=O)NC(=O)[C@@H](CC(=O)O)NC(=O)[C@H](Cc3cnc[nH]3)NC(=O)[C@@H](Cc3ccccc3)NC(=O)[C@H]([C@@H](C)CC)NC(=O)[C@@H](CCCN)NC2=O)[C@@H](C)CC)CS1" ?
Ans: 96.3

Q: And then "COc1c2occc2c(OC)c2c(=O)cc(C)oc12" , what is it?
Ans: 98.6

Q: And then "O=C1Cc2c([nH]c3ccc(Br)cc23)-c2ncccc2N1" , what is it?
Ans: 95.9

Q: And then "COc1ccc(-n2c(SCc3nc(-c4ccc(C)cc4)no3)nnc2-c2ccncc2)cc1" , what is it?
Ans: 98.3

Q: And then "Cc1nc(N)sc1-c1ccnc(Nc2ccc(N3CCOCC3)cc2)n1" , what is it?
Ans: 102

Q: And then "OCCCNc1cc(-c2ccnc(Nc3cccc(Cl)c3)n2)ccn1" , what is it?
Ans: 95

Q: And then "COc1cc(/C=C/C(=O)CC(=O)/C=C/c2ccc(O)c(OC)c2)ccc1O" , what is it?
Ans: 107

###

Exercise: for every item that follows, state its recorded cell viability.
- Tested on: HepG2
- measurement protocol: cell viability relative to DMSO; higher = less toxic
- measurement setup: 72 h; 1000 nM
The reply should be a number in %, with the unit left off.

Q: Enter reported cell viability observed with HepG2 for "O=C1CN(/N=C/c2ccc([N+](=O)[O-])o2)C(=O)N1"
Ans: 109

Q: And then O=C(Nc1ccccc1)c1ccccc1O [salicylanilide] , what is it?
Ans: 94.6

Q: And then "CN[C@@H](C)C(=O)N[C@H](C(=O)N1CCC[C@H]1C(=O)Nc1snnc1-c1ccccc1)C1CCCCC1" , what is it?
Ans: 97.4

Q: And then "c1ccc(-c2nn3c(c2-c2ccnc4cc(OCCN5CCOCC5)ccc24)CCC3)nc1" , what is it?
Ans: 95.7

Q: And then "CC(C)[C@H](O)C(=O)N[C@@H](C)C(=O)N[C@@H]1C(=O)N(C)CCc2ccccc21" , what is it?
Ans: 96.3

Q: And then Clc1ccc(C(Cn2ccnc2)OCc2ccc(Sc3ccccc3)cc2)c(Cl)c1 (stereo not drawn) , what is it?
Ans: 110

Q: And then Oc1cc2c(c(Cl)c1O)CCNCC2c1ccccc1 (stereo not drawn) , what is it?
Ans: 103

Q: And then "Brc1c(Br)c(Br)c2[nH]nnc2c1Br" , what is it?
Ans: 93.3

Q: And then "CN(C)C(=O)c1cc2cnc(Nc3ccc(N4CCNCC4)cn3)nc2n1C1CCCC1" , what is it?
Ans: 78

Q: And then N[C@@H](Cc1ccc(Cl)cc1)C(=O)O (racemic) [fenclonine-(+/-)] , what is it?
Ans: 93.7

Q: And then "CCN(CC)CCOC(=O)C(c1ccccc1)c1ccccc1" , what is it?
Ans: 113

Q: And then "CCn1nc(C(=O)O)c(=O)c2cc3c(cc21)OCO3" , what is it?
Ans: 85.1

Q: And then "CCc1nc(N)nc(N)c1-c1ccc(Cl)cc1" , what is it?
Ans: 93.2

Q: And then "CCCCNc1ncc(-c2ccc(CN3CCOCC3)cn2)c(N[C@H]2CC[C@H](O)CC2)n1" , what is it?
Ans: 97.7

Q: And then "CC(C)(C)c1cc(NC(=O)Nc2ccc(-c3cn4c(n3)sc3cc(OCCN5CCOCC5)ccc34)cc2)no1" , what is it?
Ans: 89

Q: And then CC(NCCC(c1ccccc1)c1ccccc1)c1ccccc1 (stereo not drawn) , what is it?
Ans: 94.2

Q: And then Cc1c(S(=O)(=O)O)oc2c1C(=O)C(=O)c1c-2ccc2c1CCCC2(C)C [sodium-tanshinone-II-A-sulfonate] , what is it?
Ans: 95.9

Q: And then "CC(=O)[C@@]1(O)CC[C@H]2[C@@H]3C[C@H](C)C4=CC(=O)CC[C@]4(C)[C@H]3CC[C@@]21C" , what is it?
Ans: 106

Q: And then "CC(C)c1onc(-c2c(Cl)cccc2Cl)c1COc1ccc(/C=C/c2cccc(C(=O)O)c2)c(Cl)c1" , what is it?
Ans: 99.2

Q: And then "N[C@H](Cc1c[nH]cn1)C(=O)O" , what is it?
Ans: 104

Q: And then "O=C(O[C@H]1C[C@H]2CC[C@@H](C1)[N+]21CCCC1)C(O)(c1ccccc1)c1ccccc1" , what is it?
Ans: 94.8

Q: And then C[C@]12CC[C@@H]3c4ccc(OS(=O)(=O)O)cc4CC[C@H]3[C@@H]1CCC2=O [estropipate] , what is it?
Ans: 103

Q: And then "CCCCCOc1ccc(-c2ccc(-c3ccc(C(=O)N[C@H]4C[C@@H](O)[C@@H](O)NC(=O)[C@@H]5[C@@H](O)[C@@H](C)CN5C(=O)[C@H]([C@@H](C)O)NC(=O)[C@H]([C@H](O)[C@@H](O)c5ccc(O)cc5)NC(=O)[C@@H]5C[C@@H](O)CN5C(=O)[C@H]([C@@H](C)O)NC4=O)cc3)cc2)cc1" , what is it?
Ans: 97.1

Q: And then "COC(=O)[C@@H]1[C@H]2C[C@H]3c4[nH]c5ccccc5c4CCN3C[C@@H]2CC[C@@H]1O" , what is it?
Ans: 94.5

Q: And then "CCOC(=O)[C@H](CCc1ccccc1)N[C@@H](C)C(=O)N1Cc2ccccc2C[C@H]1C(=O)O" , what is it?
Ans: 93.6

Q: And then "c1cnc(N2CCN(Cc3ccc4c(c3)OCO4)CC2)nc1" , what is it?
Ans: 107

Q: And then "Cc1ccc(O)c(N=Nc2ccccc2)n1" , what is it?
Ans: 108

Q: And then "CC1(C)CCC(C)(C)c2cc(C3(c4ccc5cc(C(=O)O)ccc5c4)SCCS3)ccc21" , what is it?
Ans: 106

Q: And then "CC(C)CCC[C@@H](C)[C@H]1CC[C@H]2[C@@H]3CC=C4C[C@@H](O)CC[C@]4(C)[C@H]3CC[C@]12C" , what is it?
Ans: 106

Q: And then "CC(C)C(=O)Nc1ncc(-c2cc(C(F)F)nn2-c2c(Cl)cccc2Cl)s1" , what is it?
Ans: 106

Q: And then "O=C1Cc2c([nH]c3ccc(Br)cc23)-c2ncccc2N1" , what is it?
Ans: 104

Q: And then "O=C(NC1CCN(CCc2c[nH]c3ccccc23)CC1)c1ccccc1" , what is it?
Ans: 98.9

Q: And then "CC[C@]12CCCN3CCc4c(n(c5ccccc45)C(=O)C1)[C@@H]32" , what is it?
Ans: 78.7

###

- System: Caco-2
- measurement protocol: cell viability relative to DMSO; higher = less toxic
- measurement setup: 72 h; 1 nM
measured quantity: cell viability (%)
The reply should be a number in %, with the unit left off.

Q: So what does the record say about cell viability for "COC1(C[S@@+]([O-])c2ccccc2)CCN(CCc2c[nH]c3ccc(F)cc23)CC1" ?
Ans: 93.6

Q: And then "C=CCN1C[C@H](C)N([C@H](c2ccc(C(=O)N(CC)CC)cc2)c2cccc(OC)c2)C[C@H]1C" , what is it?
Ans: 92.1

Q: And then CCCCC(CC)CCC(CC(C)C)OS(=O)(=O)O (stereo not drawn) [sodium-tetradecyl-sulfate] , what is it?
Ans: 100

Q: And then N=C(N)NC(=O)c1cnn(-c2cccc3ncccc23)c1C1CC1 [zoniporide] , what is it?
Ans: 89.6

Q: And then "O=C(c1ccc2nccnc2c1)N1CCCCC1" , what is it?
Ans: 97.6

Q: And then "CCCCCCCC/C=C\CCCCCCCC(=O)NCCc1ccc(O)c(O)c1" , what is it?
Ans: 98.1

Q: And then NS(=O)(=O)c1cc(C(=O)O)c(NCc2ccco2)cc1Cl [furosemide] , what is it?
Ans: 104

Q: And then C[C@H](CCC(=O)NCCS(=O)(=O)O)[C@H]1CC[C@H]2[C@@H]3[C@H](O)C[C@@H]4C[C@H](O)CC[C@]4(C)[C@H]3C[C@H](O)[C@]12C [taurocholate] , what is it?
Ans: 110

Q: And then "CC1(C)C(=O)N(c2ccc(C#N)c(C(F)(F)F)c2)C(=O)N1CCCCO" , what is it?
Ans: 104

Q: And then CC(=O)Nc1ncc([N+](=O)[O-])s1 [nithiamide] , what is it?
Ans: 96.7

Q: And then "CNCC[C@H](Oc1cccc2ccccc12)c1cccs1" , what is it?
Ans: 110

Q: And then "CN1CCc2nc(C(=O)N[C@@H]3C[C@@H](C(=O)N(C)C)CC[C@@H]3NC(=O)C(=O)Nc3ccc(Cl)cn3)sc2C1" , what is it?
Ans: 92.4

Q: And then C=CCN1CCc2nc(N)sc2CC1 [talipexole] , what is it?
Ans: 102

Q: And then "COc1ccc2nc3ccc(Cl)cc3c(SCCCN)c2c1" , what is it?
Ans: 94.9

Q: And then "CCN(CC)CCOc1ccc(/C(=C(\Cl)c2ccccc2)c2ccccc2)cc1" , what is it?
Ans: 84.4

Q: And then "Cc1ccc(-c2csc3ncnc(SCCC(=O)O)c23)cc1" , what is it?
Ans: 103

Q: And then "CN[C@@H](C)C(=O)N[C@H](C(=O)N1CCC[C@H]1C(=O)Nc1snnc1-c1ccccc1)C1CCCCC1" , what is it?
Ans: 98.4

Q: And then "COC(=O)[C@H](CC(C)C)NC(=O)c1ccc(NC[C@@H](N)CS)cc1-c1cccc2ccccc12" , what is it?
Ans: 92.3
